# study.system: Microphthalmia-associated transcription factor (Homo sapiens) (UniProt O75030)
# Sequence (O75030 whole entry, looked up): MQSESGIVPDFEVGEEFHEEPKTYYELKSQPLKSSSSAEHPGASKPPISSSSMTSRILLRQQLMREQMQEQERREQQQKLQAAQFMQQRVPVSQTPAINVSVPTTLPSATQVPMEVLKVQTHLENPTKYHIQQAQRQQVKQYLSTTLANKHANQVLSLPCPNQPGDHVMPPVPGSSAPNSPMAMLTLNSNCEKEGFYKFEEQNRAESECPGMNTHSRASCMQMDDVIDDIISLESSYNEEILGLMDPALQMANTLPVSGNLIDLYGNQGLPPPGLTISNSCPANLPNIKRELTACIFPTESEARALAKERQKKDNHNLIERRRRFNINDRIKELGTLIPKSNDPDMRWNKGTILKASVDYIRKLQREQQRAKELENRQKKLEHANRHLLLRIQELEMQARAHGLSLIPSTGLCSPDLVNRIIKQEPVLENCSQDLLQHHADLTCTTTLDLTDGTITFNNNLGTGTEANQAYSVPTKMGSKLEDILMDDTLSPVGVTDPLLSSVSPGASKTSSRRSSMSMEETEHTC
# method.notes: MITF inhibitors, primary screen, biochemical, AlphaScreen, human (AID 1259374);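 also: 0% = vehicle wells with protein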
# applied.conditions: AlphaScreen MITF homodimerization, bead proximity signal; at 2.6 µM; hits give high values
About 5,900 (0.91%) of roughly 650,000 compounds were called active. The sample as a whole holds a higher share of actives than the screen did.
reported.property: inhibition (%)
Value expressed in %; do not type the unit.

>  <molecule>
O=C1CCN(Cc2cccnc2)CCN1Cc1c(F)cc(F)cc1F

>  <study.system>
Microphthalmia-associated transcription factor (Homo sapiens) (UniProt O75030)

>  <quantity.unit>
%

>  <readout.number>
10.8

$$$$
>  <molecule>
O=C(CN(Cc1cccs1)C(=O)c1nsc(Cl)c1Cl)NC1CCCC1

>  <study.system>
Microphthalmia-associated transcription factor (Homo sapiens) (UniProt O75030)

>  <quantity.unit>
%

>  <readout.number>
11.8

$$$$
>  <molecule>
COc1ccccc1/C=C1\SC(=S)N(CCC(=O)Nc2nc(C)cs2)C1=O

>  <study.system>
Microphthalmia-associated transcription factor (Homo sapiens) (UniProt O75030)

>  <quantity.unit>
%

>  <readout.number>
13.4

$$$$
>  <molecule>
N=C1/C(=C\c2ccc([N+](=O)[O-])o2)C(=O)N=C2SC(N3CCOCC3)=NN12

>  <study.system>
Microphthalmia-associated transcription factor (Homo sapiens) (UniProt O75030)

>  <quantity.unit>
%

>  <readout.number>
74.2

$$$$

Moving on to the next molecule.
Entry NC(=O)COC(=O)/C=C/c1ccc(I)o1 ; inhibition = 52.1
